Data provenance: patent US4638005A

- Target or test system: nitrogenase (Azotobacter vinelandii, UniProt P00459)
- Construct: the nitrogenase sample was prepared from a culture of Azotobacter vinelandii; endogenous in cells; host or cells: Azotobacter vinelandii culture; French press lysate, 10,000 x g supernatant (crude)
- Sequence (P00459 2-290 limits assumed): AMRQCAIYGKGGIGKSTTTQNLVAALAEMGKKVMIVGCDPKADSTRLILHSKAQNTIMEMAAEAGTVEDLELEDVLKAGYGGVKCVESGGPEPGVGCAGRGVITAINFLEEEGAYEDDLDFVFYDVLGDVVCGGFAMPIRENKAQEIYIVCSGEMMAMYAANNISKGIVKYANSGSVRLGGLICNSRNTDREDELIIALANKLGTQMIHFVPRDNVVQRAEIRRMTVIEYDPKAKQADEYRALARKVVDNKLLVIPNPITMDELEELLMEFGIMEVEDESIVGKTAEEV
- Measurement notes: Chloroplast-coupled reduction of acetylene to ethylene by nitrogenase (electron carrier bioassay of Benemann)
- Format: biochemical
- Applied conditions: Table I; illuminated spinach chloroplasts; synthetic carriers 2 mM, clostridial ferredoxin 0.2 mM
Test readout: ACTIVITY (nmoles C2 H4 /mg protein/min)

Compound	Test readout	Result
CCC(O)Cc1c[n+](C)ccn1.[I-] (stereo not shown) [Compound 3400]	ACTIVITY (nmoles C2 H4 /mg protein/min)	2.7 nmoles C2 H4 /mg protein/min
CCCC(c1c[n+](C)ccn1)S(=O)(=O)[O-] (stereo not shown) [Compound 1200]	ACTIVITY (nmoles C2 H4 /mg protein/min)	14.5 nmoles C2 H4 /mg protein/min
C[n+]1ccnc(S(=O)(=O)[O-])c1 [Compound 2000]	ACTIVITY (nmoles C2 H4 /mg protein/min)	8.3 nmoles C2 H4 /mg protein/min

Next:
INPUT: Name the recorded ACTIVITY (nmoles C2 H4 /mg protein/min) for C[n+]1ccnc(CCC(N)=O)c1 [Compound 4000] .
OUTPUT: 3.8 nmoles C2 H4 /mg protein/min
